Biological target: IL-23R (Mus musculus, UniProt Q8K4B4)
Construct: Spleens were sterilely removed from mice, sliced, and mashed in the presence of PBS buffer; from tissue; host or cells: mouse spleen: freshly isolated splenocytes, and CD4+ cells differentiated into TH17 cells
Sequence (Q8K4B4 24-644): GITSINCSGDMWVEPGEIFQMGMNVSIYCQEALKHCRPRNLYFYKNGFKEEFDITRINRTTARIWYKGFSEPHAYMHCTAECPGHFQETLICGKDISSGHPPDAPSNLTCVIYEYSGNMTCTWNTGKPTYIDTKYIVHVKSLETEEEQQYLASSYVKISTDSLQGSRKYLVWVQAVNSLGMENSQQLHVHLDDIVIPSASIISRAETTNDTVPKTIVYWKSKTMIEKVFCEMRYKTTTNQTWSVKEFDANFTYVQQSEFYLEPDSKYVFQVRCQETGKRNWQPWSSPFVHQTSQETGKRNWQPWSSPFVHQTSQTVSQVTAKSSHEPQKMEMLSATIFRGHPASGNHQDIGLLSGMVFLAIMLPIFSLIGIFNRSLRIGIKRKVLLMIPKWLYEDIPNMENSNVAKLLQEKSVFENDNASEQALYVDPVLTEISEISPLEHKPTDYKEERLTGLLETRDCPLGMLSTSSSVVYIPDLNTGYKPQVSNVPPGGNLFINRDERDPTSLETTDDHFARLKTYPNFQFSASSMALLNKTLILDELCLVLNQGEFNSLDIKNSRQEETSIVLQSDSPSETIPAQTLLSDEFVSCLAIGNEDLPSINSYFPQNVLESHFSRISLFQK
Assay: IL-23-induced STAT3 phosphorylation in freshly isolated splenocytes (Alpha Screen SureFire p-STAT-3)
Type: cell-based
Details: mouse splenocytes (FIGS. 6 and 7)
readout.kind: activity of derivative compared to parent peptide, STAT3 phosphorylation assay

substance: ESKQLQL [Peptide 2309-3]
test.value: increases the activity

substance: TEEEQQ [Peptide 2305-9]
test.value: abolished the activity

substance: MAESKQLQL [Peptide 2309-1]
test.value: increases the activity

substance: TEEEQQY [Peptide 2305-8]
test.value: abolished the activity

Data provenance: patent US20100190710A1
